Data origin: patent US20160185837A1

Target: mouse GLP-1 receptor (mouse) (UniProt O35659)
Sequence (O35659 22-463): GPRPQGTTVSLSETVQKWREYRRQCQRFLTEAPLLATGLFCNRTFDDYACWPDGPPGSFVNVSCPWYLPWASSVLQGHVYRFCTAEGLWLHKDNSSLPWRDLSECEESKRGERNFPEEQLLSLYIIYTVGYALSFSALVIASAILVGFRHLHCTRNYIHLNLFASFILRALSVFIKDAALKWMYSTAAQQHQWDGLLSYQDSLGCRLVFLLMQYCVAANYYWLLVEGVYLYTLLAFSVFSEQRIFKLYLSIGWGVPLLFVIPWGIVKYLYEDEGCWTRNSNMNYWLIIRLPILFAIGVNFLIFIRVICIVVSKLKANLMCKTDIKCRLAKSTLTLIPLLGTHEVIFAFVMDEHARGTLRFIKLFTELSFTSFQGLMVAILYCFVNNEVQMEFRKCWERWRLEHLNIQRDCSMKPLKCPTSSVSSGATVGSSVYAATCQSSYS
Assay: cell-based or functional assay
# key: entry, value: cAMP EC50

Recorded cAMP EC50, per entry:
INSERT INTO results (binder, assay_result) VALUES
  ('IP366 (Fc fusion) YSEGTFTSDYRMLKERQAIDEFIAWLLKGGAAAGGSGSTASSGSGSATGGGGAATHTCPPC', '100 nM'),
  ('IP289 (Fc fusion) YSEGTFTSDYSKLLEKEAERLFIEWLLKGPGGGGGSGGGGSGGGGSGGGGSATHTCPPC', '6.8 nM'),
  ('IP299 (Fc fusion) YSEGTFISDYSKLLEEEAVRDFVEWLKAGGGGGGGSGGGGSGGGGSGGGGSATHTCPPC', '> 3640 nM'),
  ('IP352 (Fc fusion) YSEGTFTSDYSKLLERQAIDEFIAMLLKGEGGGGGSGGGGSGGGGSGGGGSGGGGSGGGGSA', '3.6 nM');

Ask: Using known records, supply cAMP EC50 for IP209 (Fc fusion) YSEGTFTSDYSSYMERQAIDEFIAWLLKGGAAAGGSGSTASSGSGSATGGGGAATHTCPPCPAPEF
Reply: 0.84 nM
